From: PubChem BioAssay (NCATS)

tested on: Zika virus NS2B-NS3 protease (unlinked complex); test: Primary screen GU Rhodamine qHTS for Zika virus inhibitors: Unlinked NS2B-NS3 protease assay (AID 1347159); conditions: Recombinant ZIKV NS2B-NS3 protease, Rhodamine110 substrate fluorescence; series mostly up to 107 µM; also: nearly all actives have a fitted effect of over 60% in size
Records with an inconclusive call do not appear. Activity calls are given as the source filed them. Calls follow the shape of the dose curve; as a rule, active = well fitted inhibition curve with a large enough effect; inconclusive = small, poorly fitted or top-dose-only effect; inactive = no such curve, though single readings can be large or run the other way.
// classify into active, inactive

                                   compound  class_assignment
0  CCOc1nc2cccc(C(=O)O)c2n1Cc1ccc(-c2ccccc2-c2nn[nH]n2)cc1          inactive
1  CC(C)(O)c1ccccc1CC[C@@H](SCC1(CC(=O)O)CC1)c1cccc(/C=C/c2ccc3ccc(Cl)cc3n2)c1            active
2  CC(C(O)c1ccc(O)cc1)N1CCC(Cc2ccccc2)CC1 (stereo not given)          inactive
3          CCN(CC)CCNC(=O)c1cc(Cl)c(N)cc1OC          inactive
4  COc1ccc2cc1Oc1ccc(cc1)C[C@H]1c3c(cc4c(c3Oc3cc5c(cc3OC)CCN(C)[C@@H]5C2)OCO4)CCN1C          inactive
5  O=C1Nc2ccc(Cl)cc2[C@@](C#CC2CC2)(C(F)(F)F)O1            active
6  O=c1[nH]cnc2c1ncn2[C@@H]1O[C@H](CO)[C@@H](O)[C@H]1O          inactive
7  Cc1cc(C(C#N)c2ccc(Cl)cc2)c(Cl)cc1NC(=O)c1cc(I)cc(I)c1O (stereo not given)            active
8  CN1CCOC(c2ccccc2)c2ccccc2C1 (stereo not given)          inactive

Exercise: What outcome does the record of this test show for CS(=O)(=O)c1ccc([C@@H](O)[C@@H](CF)NC(=O)C(Cl)Cl)cc1 ?
Key: inactive

* * *

molecular target: Phospholipid hydroperoxide glutathione peroxidase GPX4 (Homo sapiens) (UniProt P36969); test: Primary qHTS Assay for Inhibitors of Recombinant Selenoprotein Glutathione Peroxidase 4 (GPX4) (AID 1845192); conditions: recombinant GPX4, GR-coupled NADPH fluorescence, 15 min; series mostly up to 50 µM; also: nearly all actives have a fitted effect of over 65% in size
Sequence (P36969 whole entry, looked up): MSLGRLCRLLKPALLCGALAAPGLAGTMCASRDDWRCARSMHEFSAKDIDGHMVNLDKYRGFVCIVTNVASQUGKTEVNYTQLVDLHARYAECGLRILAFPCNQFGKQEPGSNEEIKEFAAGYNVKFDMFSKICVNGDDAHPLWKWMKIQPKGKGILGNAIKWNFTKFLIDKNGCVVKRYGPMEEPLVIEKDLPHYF
Results filed as inconclusive are left out. Active and inactive are the calls of the source. Calls come from the whole dose curve; as a rule, active = well fitted inhibition curve with a large enough effect; inconclusive = small, poorly fitted or top-dose-only effect; inactive = flat fitted curve, though single readings scatter.
measured_metric: outcome

compound	measured_metric	measurement
CC(=O)CCC(=O)O	outcome	inactive
Cc1ccc(C(C)C)cc2c(C)ccc1-2	outcome	inactive
Cc1ncc(COP(=O)(O)O)c(C=O)c1O	outcome	inactive
CC1=C(CC(=O)O)c2cc(F)ccc2/C1=C\c1ccc(S(C)=O)cc1 (configuration not stated)	outcome	inactive

Exercise: Look up outcome for this compound: NC(=O)N/N=C/c1ccc([N+](=O)[O-])o1
Key: inactive

Exercise: Look up outcome for this compound: O=C1O[C@H]([C@@H](O)CO)C(O)=C1O
Key: inactive

Exercise: Look up outcome for this compound: O=C(Oc1ccccc1C(=O)O)c1ccccc1O
Key: inactive

Exercise: Look up outcome for this compound: CC(CN(C)C)CN1c2ccccc2CCc2ccccc21 (configuration not stated)
Key: inactive

Exercise: Look up outcome for this compound: CC(CN1c2ccccc2Sc2ccccc21)N(C)C (configuration not stated)
Key: inactive

Exercise: Look up outcome for this compound: C[C@H]1O[C@H](O[C@H]2[C@H](O)[C@@H](O)[C@@H](O[C@H]3[C@H](O)[C@@H](O)[C@H](O)O[C@@H]3CO)O[C@@H]2CO)[C@H](O)[C@@H](O)[C@@H]1N[C@H]1C=C(CO)[C@@H](O)[C@H](O)[C@H]1O
Key: inactive
